Molecular target: Amine oxidase [flavin-containing] A (Homo sapiens)
Sequence (P21397 whole entry): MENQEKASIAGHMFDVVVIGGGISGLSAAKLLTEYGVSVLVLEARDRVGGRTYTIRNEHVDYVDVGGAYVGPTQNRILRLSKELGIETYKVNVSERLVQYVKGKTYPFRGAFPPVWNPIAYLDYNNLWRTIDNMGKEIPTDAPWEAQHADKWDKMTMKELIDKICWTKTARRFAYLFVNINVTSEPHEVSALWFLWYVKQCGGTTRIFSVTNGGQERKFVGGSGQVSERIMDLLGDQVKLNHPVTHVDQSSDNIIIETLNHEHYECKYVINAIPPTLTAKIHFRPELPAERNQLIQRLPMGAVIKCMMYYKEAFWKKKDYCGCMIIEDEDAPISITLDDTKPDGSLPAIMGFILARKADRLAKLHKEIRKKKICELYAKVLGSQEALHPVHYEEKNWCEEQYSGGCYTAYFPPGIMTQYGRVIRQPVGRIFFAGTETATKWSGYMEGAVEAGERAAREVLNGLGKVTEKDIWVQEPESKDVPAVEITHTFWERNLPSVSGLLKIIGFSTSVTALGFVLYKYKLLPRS
observable: Ki

Ask | Please state recorded Ki (tested on Amine oxidase [flavin-containing] A (Homo sapiens)) of N[C@H]1CC[C@H](N[C@@H]2C[C@H]2c2ccccc2)CC1
Reply | > 40 µM
